biological target: Solute carrier family 12 member 5 (Homo sapiens); assay: KCC2 inhibitors and activators, ouabain retest, confirmation, HEK-KCC2 cells (AID 1717); details: HEK293-KCC2, thallium flux FluoZin2 fluorescence, at 10 µM, bidirectional: low = inhibitor, high = activator;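 also: slope of initial-normalized fluorescence between seconds 10 and 20 after thallium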
This is one part of the list. Inconclusive results are not listed. Activity calls are given as the source filed them.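 The calls were made as follows: active = thallium flux slope beyond 3 SD from same-plate DMSO control mean in most replicates, usually higher, sometimes lower; inconclusive = repeat tests gave conflicting results; inactive = no significant difference from controls in most replicates.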
Outcome codes: 1 = active, -1 = inactive

# COMPOUND, TEST SYSTEM, CLASS ASSIGNMENT
measured = [
    ("COc1ccc(NC(=O)COC(=O)c2ccc(NS(=O)(=O)/C=C/c3ccccc3)cc2)cc1", "Solute carrier family 12 member 5 (Homo sapiens)", -1),
    ("Cc1ccc(-c2noc(CN3CCN(Cc4ccccc4)CC3)n2)cc1", "Solute carrier family 12 member 5 (Homo sapiens)", -1),
    ("O=C(CNCc1cccs1)Nc1cc(S(=O)(=O)N2CCCC2)ccc1Cl", "Solute carrier family 12 member 5 (Homo sapiens)", 1),
    ("Cc1ccc(C2CC(=O)NC(SCC(=O)OCc3ccccc3)=C2C#N)o1 (configuration not stated)", "Solute carrier family 12 member 5 (Homo sapiens)", 1),
    ("C/C(=N\\NC(=S)NC1CCCCC1)c1ccc(C)o1", "Solute carrier family 12 member 5 (Homo sapiens)", 1),
    ("COC(=O)c1sccc1NC(=O)CCC1CCCC1", "Solute carrier family 12 member 5 (Homo sapiens)", -1),
    ("Cc1nnc(SC(C(=O)Nc2cc(Cl)cc(Cl)c2)c2ccccc2)[nH]c1=O (configuration not stated)", "Solute carrier family 12 member 5 (Homo sapiens)", 1),
]
